Target: FAAH (Mus musculus)
Construct: Proteomes (mouse brain membrane fraction or cell lysates); from tissue; host or cells: mouse brain membrane fraction (or cell lysates, not specified)
Sequence (O08914 whole entry): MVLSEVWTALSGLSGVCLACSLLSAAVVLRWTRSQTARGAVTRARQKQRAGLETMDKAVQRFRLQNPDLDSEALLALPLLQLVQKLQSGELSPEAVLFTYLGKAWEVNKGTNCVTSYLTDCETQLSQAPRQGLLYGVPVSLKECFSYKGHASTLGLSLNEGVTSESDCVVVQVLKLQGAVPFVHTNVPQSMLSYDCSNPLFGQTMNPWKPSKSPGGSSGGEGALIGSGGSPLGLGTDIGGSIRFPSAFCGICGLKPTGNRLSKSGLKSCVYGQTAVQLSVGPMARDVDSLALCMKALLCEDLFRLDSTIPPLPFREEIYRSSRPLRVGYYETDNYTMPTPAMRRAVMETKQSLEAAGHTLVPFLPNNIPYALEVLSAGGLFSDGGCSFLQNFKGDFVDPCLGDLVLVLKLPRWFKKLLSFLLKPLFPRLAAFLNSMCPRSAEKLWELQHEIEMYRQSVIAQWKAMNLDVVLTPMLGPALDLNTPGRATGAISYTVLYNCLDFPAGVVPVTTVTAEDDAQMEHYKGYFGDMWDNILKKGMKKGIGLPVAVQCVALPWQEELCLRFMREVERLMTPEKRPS
Experiment: In vitro competitive activity-based protein profiling (gel-based, FP-Rh or HT-01 probe)
Type: biochemical
Conditions: 1 μM inhibitor; read-out: % Inhibition at 1 μM, B = FAAH
Property name: inhibition at 1 µM

{"columns": ["Molecule", "Property name", "Meas value"],
 "data": [
  ["Cc1ccc(N2CCN(C(=O)n3cc(C(F)(F)F)cn3)CC2)cc1 [Example 232]", "inhibition at 1 µM", "> 75%"],
  ["O=C(c1cnn(C(=O)N2CCN(Cc3ccc4c(c3)OCO4)CC2)c1)N1CCC1 [Example 86]", "inhibition at 1 µM", "> 75%"],
  ["CCN(Cc1ccc(OC)cc1)C(=O)n1cc(Cl)cn1 [Example 129]", "inhibition at 1 µM", "> 75%"],
  ["O=C(c1cnn(C(=O)N2CCN(Cc3ccccn3)CC2)c1)N1CCCCC1 [Example 72]", "inhibition at 1 µM", "< 25%"],
  ["Cc1cnn(C(=O)N2CCN(C(c3ccc(Cl)cc3)c3ccc(Cl)cc3)CC2)c1 [Example 117]", "inhibition at 1 µM", "< 25%"],
  ["O=C(N1CCN(Cc2ccc(-c3ccccc3)cc2Cl)CC1)n1cc(C(F)(F)F)cn1 [Example 143]", "inhibition at 1 µM", "> 75%"],
  ["CC(=O)N(C)CCN(C)C(=O)n1cc(C#N)cn1 [Example 181]", "inhibition at 1 µM", "< 25%"],
  ["N#Cc1cnn(C(=O)N2CCN(Cc3ccc(-c4ccccc4)cc3Cl)CC2)c1 [Example 140]", "inhibition at 1 µM", "> 75%"],
  ["Cc1cc(-c2ccccc2)ccc1CN1CCN(C(=O)n2cc(C(=O)N3CCCCC3)cn2)CC1 [Example 76]", "inhibition at 1 µM", "> 75%"],
  ["COc1ccc(N2CCN(C(=O)n3cc(C(F)(F)F)cn3)CC2)cc1 [Example 235]", "inhibition at 1 µM", "> 75%"],
  ["O=C(c1cnn(C(=O)N2CCN(Cc3cncnc3)CC2)c1)N1CCCC1 [Example 84]", "inhibition at 1 µM", "< 25%"],
  ["Cc1cccc(N2CCN(C(=O)n3cc(C(F)(F)F)cn3)CC2)c1 [Example 231]", "inhibition at 1 µM", "> 75%"],
  ["O=C(c1cnn(C(=O)N2CCN(Cc3ccc4c(c3)OCO4)CC2)c1)N1CCCC1 [Example 78]", "inhibition at 1 µM", "> 75%"],
  ["O=C(N1CCN(c2ccccc2N2CCCC2)CC1)n1cc(C(F)(F)F)cn1 [Example 239]", "inhibition at 1 µM", "> 75%"],
  ["O=C(N1CCN(Cc2ccc3ccccc3c2)CC1)n1cccn1 [Example 10]", "inhibition at 1 µM", "> 75%"],
  ["O=C(c1cnn(C(=O)N2CCN(C(c3ccc(Cl)cc3)c3ccc(Cl)cc3)CC2)c1)N1CCCCC1 [Example 66]", "inhibition at 1 µM", "< 25%"],
  ["COc1cc(-c2ccccc2)ccc1CN1CCN(C(=O)n2cc(C#N)cn2)CC1 [Example 145]", "inhibition at 1 µM", "> 75%"],
  ["CC(=O)N1CCN(C(=O)n2cc(C(F)(F)F)cn2)CC1 [Example 149]", "inhibition at 1 µM", "< 25%"],
  ["N#Cc1cnn(C(=O)NCCCCCc2ccccc2)c1 [Example 39]", "inhibition at 1 µM", "< 25%"],
  ["O=C(N1CCN(Cc2ccc(Cl)cc2N2CCC3(CCOCC3)C2)CC1)n1cc(Cl)cn1 [Example 102]", "inhibition at 1 µM", "< 25%"],
  ["O=C(N1CCN(C(c2ccc(Cl)cc2)c2ccc(Cl)cc2)CC1)n1cc(F)cn1 [Example 121]", "inhibition at 1 µM", "< 25%"],
  ["CN(Cc1cccc(-c2ccncc2)c1)C(=O)n1cc(Cl)cn1 [Example 220]", "inhibition at 1 µM", "> 75%"],
  ["CC(C)(C)OC(=O)N1CCCN(C(=O)n2cccn2)CC1 [Example 25]", "inhibition at 1 µM", "< 25%"]
]}
